Tested on: AncSZ;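 also: 11-residue human phosphosite peptides and single-mutation variants displayed on the E. coli surface, counted by deep sequencing, each peptide's frequency after selection divided by its frequency in the unselected input library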;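 also: frequency after pTyr selection over input frequency; kinase dosed for 20-30% of maximal phosphorylation in three min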
procedure_text: phosphorylation enrichment, bacterial display (enrichment ratio); higher = better substrate or ligand; peptides without Tyr show the background
Decide by phosphorylation enrichment: equal to or exceeding 1 means yes, less means no.

Completed entries (count: 3):
1. EIIPFYGMSSF [FNDC3B_Y175_T179S_YF]
yes
2. MFFSTYDRDND [FGB_Y408]
no
3. SPPILYSFFLN [FCRL6_Y239_D244N_YF]
yes

## Task Please check the record LPVHFYGHVEH [PYGM_Y204] and state if its phosphorylation enrichment is at or above 1.
## Result yes

## Task Say whether ASFPLYEPAKM [MKI67_Y340] shows phosphorylation enrichment of 1 or more.
## Result no

## Task // inclusive: phosphorylation enrichment at least 1? input: PEADKYRLTYA [FGG_Y300]
## Result yes

## Task Could you please find out whether RLSVDYSKKSK [TUBA3E_Y161] has phosphorylation enrichment that meets 1 or exceeds it?
## Result no

## Task # bool: phosphorylation enrichment of IMAFFYMCDSA [CASD1_Y382_R386S_YF] >= 1
## Result yes

## Task Form field: phosphorylation enrichment at least 1? Entry: CNTIHYNYMCN [TP53_Y234_T230N]
## Result no

## Task Check this sequence for phosphorylation enrichment at or above 1: IYHLSYLHNCE [PDE6B_Y227]
## Result yes

* * *

measurement_target: SHP2-C SH2
procedure_text: SH2 binding enrichment of the phosphorylated peptide, bacterial display (enrichment ratio); higher = better substrate or ligand; peptides without Tyr show the background
# cutoff 0.7 applies to SH2 binding enrichment; >= gives Condition met, < gives Condition not met

## Task // inclusive: SH2 binding enrichment at least 0.7? input: KLQQWYREHRS [GPI_Y17]
## Result Condition met

## Task Reported SH2 binding enrichment at or above 0.7? RPFFLYVAFHN [SGSH_Y174_D179N]
## Result Condition not met

## Task Hello, I need to know if REEKNYKHKET [BCLAF1_Y459_L461H] has measured SH2 binding enrichment not below 0.7. Thanks!
## Result Condition not met

* * *

measurement_target: c-Src SH2
procedure_text: SH2 binding enrichment of the phosphorylated peptide, bacterial display (enrichment ratio); higher = better substrate or ligand; peptides without Tyr show the background
Each record here notes measured SH2 binding enrichment.
Form: value (number only, do not type unit).

Example sequences with recorded SH2 binding enrichment:
1. YKEDPYLVVNP [MCM6_Y810_E806K]
0.58
2. QSSALYEDHFL [ASS1_Y83_R86H_YF]
0.48
3. LPSKDYAEVGR [HP_Y272]
2.68

## Task Entry FKDFFYCWNTF [AICDA_Y146_YF] needs its SH2 binding enrichment filled in; supply it.
## Result 0.423

## Task Dear colleague, please send me the reported SH2 binding enrichment for DAVKHYMQFQK [CNGA2_Y395_R399Q] when you can.
## Result 0.62

## Task Item YRVAGYETQGG [TIA1_Y383] : provide SH2 binding enrichment
## Result 0.391

## Task Give the value of SH2 binding enrichment reported for the following: ENPLDYGSAWA [AR_Y395]
## Result 0.454

## Task Answer with reported SH2 binding enrichment of HEKFLYFLPAS [DYNC2H1_Y346]
## Result 0.676

## Task Check the records and state SH2 binding enrichment for KIKGRYEKCEP [KRT26_Y119_W118R]
## Result 1.81

## Task Tell us which SH2 binding enrichment value is on record for GRLFAYPDTHC [CAT_Y358_R363C]
## Result 0.531

## Task Identify SH2 binding enrichment associated with the sequence SGRPGYCLGTR [SCO1_Y60]
## Result 0.77
